Source listed as ChEMBL document CHEMBL4190379.

MEASUREMENT TARGET: Bromodomain-containing protein 4 (Homo sapiens)
PROCEDURE TEXT: Binding affinity to BRD4 in human H1299 cells stably expressing E2 and HPV16-LCR luciferase reporter incubated for 24 hrs by Bright-Glo luciferase reporter gene assay based BRD4 engagement assay
pIC50: −log10 of the molar value.
compounds and their reported pIC50
MEASURE: pIC50

- SMILES RECORD: "Cn1cc2c3c(c[nH]c(=O)c31)-c1cc(CS(C)(=O)=O)ccc1N(C(=O)C1CC1)C2"
  MEASUREMENT TARGET: "Bromodomain-containing protein 4 (Homo sapiens)"
  NUMBER: 7.51
- SMILES RECORD: "Cn1cc2c3c(c[nH]c(=O)c31)CN(CC1CC1)c1ccccc1-2"
  MEASUREMENT TARGET: "Bromodomain-containing protein 4 (Homo sapiens)"
  NUMBER: 7.02
- SMILES RECORD: "CCS(=O)(=O)Nc1cnc2c(c1)-c1c[nH]c(=O)c3c1c(cn3C)CN2c1ccc(F)cc1F"
  MEASUREMENT TARGET: "Bromodomain-containing protein 4 (Homo sapiens)"
  NUMBER: 7.49
- SMILES RECORD: "Cn1cc2c3c(c[nH]c(=O)c31)-c1cc(CS(C)(=O)=O)ccc1N(c1ccc(F)cc1F)C2"
  MEASUREMENT TARGET: "Bromodomain-containing protein 4 (Homo sapiens)"
  NUMBER: 8.19
- SMILES RECORD: "Cn1cc2c3c(c[nH]c(=O)c31)-c1cc(CS(C)(=O)=O)ccc1N(c1ccccn1)C2"
  MEASUREMENT TARGET: "Bromodomain-containing protein 4 (Homo sapiens)"
  NUMBER: 8.64
- SMILES RECORD: "Cn1cc2c3c(c[nH]c3c1=O)CN(CC1CC1)c1ccccc1-2"
  MEASUREMENT TARGET: "Bromodomain-containing protein 4 (Homo sapiens)"
  NUMBER: 7.64
- SMILES RECORD: "Cn1cc2c3c(c[nH]c(=O)c31)-c1cc(CS(C)(=O)=O)ccc1N(c1ccc(F)cc1)C2"
  MEASUREMENT TARGET: "Bromodomain-containing protein 4 (Homo sapiens)"
  NUMBER: 8.60
- SMILES RECORD: "CCS(=O)(=O)Nc1ccc(Oc2ccc(F)cc2F)c(-c2cn(C)c(=O)c3[nH]ccc23)c1"
  MEASUREMENT TARGET: "Bromodomain-containing protein 4 (Homo sapiens)"
  NUMBER: 7.70
- SMILES RECORD: "Cn1cc2c3c(c[nH]c3c1=O)CN(C(=O)C1CC1)c1ccc(CS(C)(=O)=O)cc1-2"
  MEASUREMENT TARGET: "Bromodomain-containing protein 4 (Homo sapiens)"
  NUMBER: 7.68
- SMILES RECORD: "COC(=O)N1Cc2cn(C)c3c(=O)[nH]cc(c23)-c2cc(CS(C)(=O)=O)ccc21"
  MEASUREMENT TARGET: "Bromodomain-containing protein 4 (Homo sapiens)"
  NUMBER: 7.32
- SMILES RECORD: "Cn1cc2c3c(c[nH]c3c1=O)CN(c1ccc(F)cc1F)c1ccc(CS(C)(=O)=O)cc1-2"
  MEASUREMENT TARGET: "Bromodomain-containing protein 4 (Homo sapiens)"
  NUMBER: 8.44
- SMILES RECORD: "Cn1cc(-c2cc(S(C)(=O)=O)ccc2NCC2CC2)c2cc[nH]c(=O)c21"
  MEASUREMENT TARGET: "Bromodomain-containing protein 4 (Homo sapiens)"
  NUMBER: 6.82
- SMILES RECORD: "CCS(=O)(=O)Nc1cnc2c(c1)-c1cn(C)c(=O)c3[nH]cc(c13)CN2c1ccc(F)cc1F"
  MEASUREMENT TARGET: "Bromodomain-containing protein 4 (Homo sapiens)"
  NUMBER: 8.39
- SMILES RECORD: "Cn1cc2c3c(c[nH]c3c1=O)CN(c1ccccn1)c1ccc(CS(C)(=O)=O)cc1-2"
  MEASUREMENT TARGET: "Bromodomain-containing protein 4 (Homo sapiens)"
  NUMBER: 8.77
- SMILES RECORD: "CCS(=O)(=O)Nc1ccc2c(c1)-c1c[nH]c(=O)c3c1c(cn3C)CN2c1ccc(F)cc1"
  MEASUREMENT TARGET: "Bromodomain-containing protein 4 (Homo sapiens)"
  NUMBER: 8.37
